- Study Target: Acetylcholinesterase (Torpedo californica, UniProt P04058)
- Sequence (P04058 whole entry): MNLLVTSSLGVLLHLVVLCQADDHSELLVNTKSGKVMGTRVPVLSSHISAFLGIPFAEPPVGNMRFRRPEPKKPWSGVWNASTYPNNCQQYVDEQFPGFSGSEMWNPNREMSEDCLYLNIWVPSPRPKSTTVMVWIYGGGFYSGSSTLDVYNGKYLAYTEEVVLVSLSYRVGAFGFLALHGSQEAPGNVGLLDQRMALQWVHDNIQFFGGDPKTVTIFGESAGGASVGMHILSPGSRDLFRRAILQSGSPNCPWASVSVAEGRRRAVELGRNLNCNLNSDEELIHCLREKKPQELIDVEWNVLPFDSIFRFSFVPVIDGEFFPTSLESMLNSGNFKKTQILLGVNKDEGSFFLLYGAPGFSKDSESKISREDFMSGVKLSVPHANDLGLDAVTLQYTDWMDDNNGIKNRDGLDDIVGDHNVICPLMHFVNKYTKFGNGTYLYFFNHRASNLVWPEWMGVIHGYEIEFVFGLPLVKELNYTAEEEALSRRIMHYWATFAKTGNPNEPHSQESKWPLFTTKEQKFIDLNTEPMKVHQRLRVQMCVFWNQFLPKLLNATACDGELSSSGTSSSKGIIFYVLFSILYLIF
- Method Description: Inhibition of Torpedo californica […] AChE using acetylthiocholine/DTNB as substrate preincubated for 10 mins followed by substrate addition measured every 30 secs for 30 mins by Ellmans method
- Design: species or system Tetronarce californica
Please respond with reported pIC50 for every item in the list.
One number for each entry, as −log10 of the molar value.

For every listed record, write down its pIC50.
1. Cc1cccc(Nc2ccccc2C(=O)NCCC(=O)NCCCCCCNc2c3c(nc4ccccc24)CCCC3)c1C
2. Cc1cccc(Nc2ccccc2C(=O)NCCC(=O)NCCCCNc2c3c(nc4ccccc24)CCCC3)c1C

1: 6.01; 2: 6.37

For every listed record, write down its pIC50.
1. Cc1cccc(Nc2ccccc2C(=O)NCCCCCC(=O)NCCCCCCCCNc2c3c(nc4ccccc24)CCCC3)c1C
2. Cc1cccc(Nc2ccccc2C(=O)NCC(=O)NCCCNc2c3c(nc4cc(Cl)ccc24)CCCC3)c1C
3. Cc1cccc(Nc2ccccc2C(=O)NCCC(=O)NCCCCCCCNc2c3c(nc4ccccc24)CCCC3)c1C
4. Cc1cccc(Nc2ccccc2C(=O)NCCCC(=O)NCCCCCCCCNc2c3c(nc4ccccc24)CCCC3)c1C
5. Cc1cccc(Nc2ccccc2C(=O)NCC(=O)NCCCCNc2c3c(nc4ccccc24)CCCC3)c1C
6. Cc1cccc(Nc2ccccc2C(=O)NCCCC(=O)NCCCNc2c3c(nc4ccccc24)CCCC3)c1C

[7.73, 7.55, 7.86, 7.76, 6.58, 5.43]

====

Please respond with reported IC50 for every item in the list.
- Study Target: Acetylcholinesterase (Torpedo californica)
- Method Description: Inhibition of Torpedo californica […] AChE using acetylthiocholine/DTNB as substrate preincubated for 10 mins followed by substrate addition measured every 30 secs for 30 mins by Ellmans method
- Parameters: species or system Tetronarce californica
Numbers only, in nM.

Cc1cccc(Nc2ccccc2C(=O)NCCCCCC(=O)NCCCCNc2c3c(nc4ccccc24)CCCC3)c1C = 1860
Cc1cccc(Nc2ccccc2C(=O)NCCC(=O)NCCCNc2c3c(nc4cc(Cl)ccc24)CCCC3)c1C = 20.3
Cc1cccc(Nc2ccccc2C(=O)NCCCC(=O)NCCCCCCCCNc2c3c(nc4cc(Cl)ccc24)CCCC3)c1C = 17
Cc1cccc(Nc2ccccc2C(=O)NCCCCCCCCCCNc2c3c(nc4ccccc24)CCCC3)c1C = 385

For every listed record, write down its IC50.
1. Cc1cccc(Nc2ccccc2C(=O)NCCC(=O)NCCCCCCNc2c3c(nc4cc(Cl)ccc24)CCCC3)c1C
2. Cc1cccc(Nc2ccccc2C(=O)NCCCC(=O)NCCCCNc2c3c(nc4cc(Cl)ccc24)CCCC3)c1C
3. Cc1cccc(Nc2ccccc2C(=O)NCCCCCC(=O)NCCCCCCNc2c3c(nc4cc(Cl)ccc24)CCCC3)c1C
4. Cc1cccc(Nc2ccccc2C(=O)NCCCC(=O)NCCCCCCNc2c3c(nc4ccccc24)CCCC3)c1C

1.14
13.6
2.94
195

====

Please respond with reported IC50 for every item in the list.
- Study Target: Acetylcholinesterase (Torpedo californica, UniProt P04058)
- Method Description: Inhibition of Torpedo californica […] AChE using acetylthiocholine/DTNB as substrate assessed as ROS-induced enzyme inactivation preincubated for 10 mins followed by substrate addition measured every 30 secs for 20 mins in presence of horseradish peroxidase and H2O2
- Set-up: species or system Tetronarce californica
Answers are plain numbers, in nM.

// below: answered molecules
Cc1cccc(Nc2ccccc2C(=O)NCCCC(=O)NCCCCCCNc2c3c(nc4ccccc24)CCCC3)c1C = 29.9
Cc1cccc(Nc2ccccc2C(=O)NCCCCCC(=O)NCCCCCCCNc2c3c(nc4ccccc24)CCCC3)c1C = 3.66
Cc1cccc(Nc2ccccc2C(=O)NCCC(=O)NCCCCCCCCNc2c3c(nc4ccccc24)CCCC3)c1C = 4.07

For every listed record, write down its IC50.
1. Cc1cccc(Nc2ccccc2C(=O)NCCC(=O)NCCCCCCCCNc2c3c(nc4cc(Cl)ccc24)CCCC3)c1C
2. Cc1cccc(Nc2ccccc2C(=O)NCCCCCCCCCNc2c3c(nc4cc(Cl)ccc24)CCCC3)c1C

[4.97, 6.72]

For every listed record, write down its IC50.
1. Cc1cccc(Nc2ccccc2C(=O)NCCCCCCCNc2c3c(nc4ccccc24)CCCC3)c1C
2. Cc1cccc(Nc2ccccc2C(=O)NCCCCCC(=O)NCCCCCCNc2c3c(nc4ccccc24)CCCC3)c1C
3. Cc1cccc(Nc2ccccc2C(=O)NCCCC(=O)NCCCCCCNc2c3c(nc4cc(Cl)ccc24)CCCC3)c1C
4. Cc1cccc(Nc2ccccc2C(=O)NCCCCCCCCCCNc2c3c(nc4ccccc24)CCCC3)c1C

1: 25.2; 2: 34; 3: 15.6; 4: 0.908

For every listed record, write down its IC50.
1. Cc1cccc(Nc2ccccc2C(=O)NCCCCCC(=O)NCCCCCCNc2c3c(nc4cc(Cl)ccc24)CCCC3)c1C
2. Cc1cccc(Nc2ccccc2C(=O)NCCCC(=O)NCCCNc2c3c(nc4cc(Cl)ccc24)CCCC3)c1C

7.39
1.03
